binders and their reported log10 of Kd
Molecular target: T1, human tissue factor pathway inhibitor (TFPI) (human, UniProt P10646 29-304, limits assumed)
T1 construct: bought; also called hTFPI; human TFPI
T1 sequence (looked up): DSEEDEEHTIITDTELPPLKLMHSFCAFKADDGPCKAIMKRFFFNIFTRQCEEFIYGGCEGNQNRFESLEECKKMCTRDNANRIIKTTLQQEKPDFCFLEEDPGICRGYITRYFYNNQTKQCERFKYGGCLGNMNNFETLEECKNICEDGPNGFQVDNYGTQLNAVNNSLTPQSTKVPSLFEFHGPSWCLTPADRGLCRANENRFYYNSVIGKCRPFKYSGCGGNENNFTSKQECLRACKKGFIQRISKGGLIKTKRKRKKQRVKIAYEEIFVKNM
Experiment: SPR, TFPI immobilized
Please note: log10 values; quantity Kd; unit nM.

{"binder": "4B7 wild-type Fab (Fab, V domains shown, Fab with HA (or c-myc) and 6xHis tag at the C-terminus of the heavy chain; also called 4B7wt; parental 4B7) VH: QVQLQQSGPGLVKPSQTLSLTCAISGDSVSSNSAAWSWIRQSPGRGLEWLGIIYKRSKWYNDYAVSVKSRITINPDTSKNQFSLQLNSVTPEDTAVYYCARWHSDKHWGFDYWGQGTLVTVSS VL: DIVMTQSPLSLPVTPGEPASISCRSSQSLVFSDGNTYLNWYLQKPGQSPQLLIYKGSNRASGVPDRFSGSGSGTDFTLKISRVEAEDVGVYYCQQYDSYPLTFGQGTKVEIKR", "log10 of Kd": 1.05}
{"binder": "2A8 HC_S31V (Fab, V domains shown, also called 2A8-3) VH: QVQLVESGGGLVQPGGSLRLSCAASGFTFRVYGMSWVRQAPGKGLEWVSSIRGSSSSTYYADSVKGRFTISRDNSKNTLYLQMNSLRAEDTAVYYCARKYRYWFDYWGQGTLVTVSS VL: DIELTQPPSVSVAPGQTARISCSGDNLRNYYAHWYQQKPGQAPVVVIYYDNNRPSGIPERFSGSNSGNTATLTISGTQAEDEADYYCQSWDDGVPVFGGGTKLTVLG", "log10 of Kd": -0.43}
{"binder": "2A8 HC_G33P (Fab, V domains shown, also called 2A8-1) VH: QVQLVESGGGLVQPGGSLRLSCAASGFTFRSYPMSWVRQAPGKGLEWVSSIRGSSSSTYYADSVKGRFTISRDNSKNTLYLQMNSLRAEDTAVYYCARKYRYWFDYWGQGTLVTVSS VL: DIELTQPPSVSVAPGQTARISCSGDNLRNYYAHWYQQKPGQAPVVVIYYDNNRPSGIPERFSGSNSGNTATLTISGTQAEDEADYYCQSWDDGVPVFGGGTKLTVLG", "log10 of Kd": -0.08}
{"binder": "2A8 LC_Y48F (Fab, V domains shown, also called 2A8-14) VH: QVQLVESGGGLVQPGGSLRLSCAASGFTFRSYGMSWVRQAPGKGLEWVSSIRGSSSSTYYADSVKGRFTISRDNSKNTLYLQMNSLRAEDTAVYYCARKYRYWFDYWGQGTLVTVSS VL: DIELTQPPSVSVAPGQTARISCSGDNLRNYYAHWYQQKPGQAPVVVIFYDNNRPSGIPERFSGSNSGNTATLTISGTQAEDEADYYCQSWDDGVPVFGGGTKLTVLG", "log10 of Kd": 0.06}

Next up:
Query :: Which value of log10 of Kd has been reported for 2A8 HC_S54F (Fab, V domains shown, also called 2A8-7) VH: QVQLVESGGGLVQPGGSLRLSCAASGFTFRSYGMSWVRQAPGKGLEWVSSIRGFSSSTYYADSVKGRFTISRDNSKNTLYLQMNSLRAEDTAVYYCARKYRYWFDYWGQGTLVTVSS VL: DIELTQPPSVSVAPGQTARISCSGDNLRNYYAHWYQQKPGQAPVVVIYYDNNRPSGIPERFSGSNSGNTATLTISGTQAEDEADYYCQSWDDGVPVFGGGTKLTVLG in the records?
Result :: -0.14

Hello, the source for this data is patent USRE47150, in case you need it.
